This collection of values is drawn from paper PMC6821365.

# target or test system: T1, yedK R4A (Escherichia coli (gene from BL21 …, UniProt P76318 2-222, R4A))
# T1 sequence: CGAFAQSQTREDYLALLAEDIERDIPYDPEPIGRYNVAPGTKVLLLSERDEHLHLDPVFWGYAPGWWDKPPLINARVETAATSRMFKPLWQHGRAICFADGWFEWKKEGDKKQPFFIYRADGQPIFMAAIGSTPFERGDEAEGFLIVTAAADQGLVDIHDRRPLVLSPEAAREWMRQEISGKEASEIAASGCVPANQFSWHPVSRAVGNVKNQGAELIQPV
# assay text: ITC
pKd: −log10 of the molar value.

binder | pKd
CGGTCGATTC (ssDNA) [ssDNA] | 4.46
